Values from patent US9908912B2

tested on: Str. viridans; experiment: MIC in Nutrient Agar; type: cell-based, Streptococcus viridans; settings: Nutrient Agar containing 0.1 μg/ml of inducer; 37° C., 24 hours
parameter: MIC (µg/mL)
Quick note: give the figure in µg/mL, leave out the unit.

These solved cases illustrate the format of a correct answer.
[[record]]
molecule = "O[C@@H]1[C@H](Oc2cc(Cl)ccc2Oc2ccc(Cl)cc2Cl)OC[C@@H](O)[C@H]1O [β-D-Arabinoside, triclosan-β-D-arabinopyranoside]"
reading = 128

[[record]]
molecule = "OC[C@H]1O[C@@H](Oc2cc(Cl)ccc2Oc2ccc(Cl)cc2Cl)[C@H](O)[C@@H](O)[C@@H]1O [β-D-Glucoside, triclosan-β-D-glucopyranoside]"
reading = 256

[[record]]
molecule = "OC[C@H]1O[C@H](Oc2cc(Cl)ccc2Oc2ccc(Cl)cc2Cl)[C@@H](O)[C@@H](O)[C@@H]1O [α-D-Mannoside, triclosan-α-D-mannopyranoside]"
reading = 128


Now look at this entry.
Using the record for OC[C@H]1O[C@H](Oc2cc(Cl)ccc2Oc2ccc(Cl)cc2Cl)[C@H](O)[C@@H](O)[C@@H]1O [α-D-Glucoside, triclosan-α-D-glucopyranoside] , report its MIC. 64

* * *

system: Enterococcus faecalis ATCC 29212; experiment: MIC in Nutrient Broth No. 2; format: cell-based; conditions: Nutrient Broth No. 2; without inducer
MIC overview
Quick note: give the figure in µg/mL, leave out the unit.

[[record]]
molecule = "OC[C@H]1O[C@@H](Oc2cc(Cl)ccc2Oc2ccc(Cl)cc2Cl)[C@H](O)[C@@H](O)[C@@H]1O [β-D-Glucoside, triclosan-β-D-glucopyranoside]"
readoutunits = "µg/mL"
reading = 16


Using the record for OC[C@H]1O[C@H](Oc2cc(Cl)ccc2Oc2ccc(Cl)cc2Cl)[C@H](O)[C@@H](O)[C@@H]1O [α-D-Glucoside, triclosan-α-D-glucopyranoside] , report its MIC. 128

Using the record for OC[C@H]1O[C@H](Oc2cc(Cl)ccc2Oc2ccc(Cl)cc2Cl)[C@@H](O)[C@@H](O)[C@@H]1O [α-D-Mannoside, triclosan-α-D-mannopyranoside] , report its MIC. 256

Using the record for O[C@@H]1[C@H](Oc2cc(Cl)ccc2Oc2ccc(Cl)cc2Cl)OC[C@@H](O)[C@H]1O [β-D-Arabinoside, triclosan-β-D-arabinopyranoside] , report its MIC. 256

* * *

test system: E. coli; assay: MIC in Nutrient Agar; format: cell-based, Escherichia coli; settings: 8 strains; Nutrient Agar containing 0.1 μg/ml of inducer; 37° C., 24 hours
parameter: MIC

These solved cases illustrate the format of a correct answer.
[[record]]
compound = "OC[C@H]1O[C@@H](Oc2cc(Cl)ccc2Oc2ccc(Cl)cc2Cl)[C@H](O)[C@@H](O)[C@@H]1O [β-D-Glucoside, triclosan-β-D-glucopyranoside]"
reading = "16 to 32 µg/mL"

[[record]]
compound = "OC[C@H]1O[C@H](Oc2cc(Cl)ccc2Oc2ccc(Cl)cc2Cl)[C@H](O)[C@@H](O)[C@@H]1O [α-D-Glucoside, triclosan-α-D-glucopyranoside]"
reading = "0.5 to 4 µg/mL"

[[record]]
compound = "O[C@@H]1[C@H](Oc2cc(Cl)ccc2Oc2ccc(Cl)cc2Cl)OC[C@@H](O)[C@H]1O [β-D-Arabinoside, triclosan-β-D-arabinopyranoside]"
reading = "8 to 32 µg/mL"


Using the record for OC[C@H]1O[C@H](Oc2cc(Cl)ccc2Oc2ccc(Cl)cc2Cl)[C@@H](O)[C@@H](O)[C@@H]1O [α-D-Mannoside, triclosan-α-D-mannopyranoside] , report its MIC. 8 to 64 µg/mL

Using the record for OC[C@H]1O[C@H](Oc2cc(Cl)ccc2Oc2ccc(Cl)cc2Cl)[C@H](O)[C@@H](O)[C@H]1O [α-D-Galactoside, triclosan-α-D-galactopyranoside] , report its MIC. 8 to 32 µg/mL

* * *

test system: Strep. pyogenes ATCC 19615; experiment: MIC in Nutrient Broth No. 2; assay type: cell-based, Streptococcus pyogenes; settings: Nutrient Broth No. 2; with inducer 100 μg/ml
MIC overview
Quick note: give the figure in µg/mL, leave out the unit.

These solved cases illustrate the format of a correct answer.
[[record]]
compound = "OC[C@H]1O[C@H](Oc2cc(Cl)ccc2Oc2ccc(Cl)cc2Cl)[C@@H](O)[C@@H](O)[C@@H]1O [α-D-Mannoside, triclosan-α-D-mannopyranoside]"
reading = 32

[[record]]
compound = "OC[C@H]1O[C@H](Oc2cc(Cl)ccc2Oc2ccc(Cl)cc2Cl)[C@H](O)[C@@H](O)[C@H]1O [α-D-Galactoside, triclosan-α-D-galactopyranoside]"
reading = 256

[[record]]
compound = "OC[C@H]1O[C@@H](Oc2cc(Cl)ccc2Oc2ccc(Cl)cc2Cl)[C@H](O)[C@@H](O)[C@@H]1O [β-D-Glucoside, triclosan-β-D-glucopyranoside]"
reading = 16


Using the record for OC[C@H]1O[C@H](Oc2cc(Cl)ccc2Oc2ccc(Cl)cc2Cl)[C@H](O)[C@@H](O)[C@@H]1O [α-D-Glucoside, triclosan-α-D-glucopyranoside] , report its MIC. 16

Using the record for O[C@@H]1[C@H](Oc2cc(Cl)ccc2Oc2ccc(Cl)cc2Cl)OC[C@@H](O)[C@H]1O [β-D-Arabinoside, triclosan-β-D-arabinopyranoside] , report its MIC. 32

* * *

system: Ent. cloacae ATCC 13047; test: MIC in Nutrient Broth No. 2; type: cell-based, Enterobacter cloacae; conditions: Nutrient Broth No. 2; without inducer
parameter: MIC (µg/mL)
Quick note: give the figure in µg/mL, leave out the unit.

These solved cases illustrate the format of a correct answer.
[[record]]
compound = "O[C@@H]1[C@H](Oc2cc(Cl)ccc2Oc2ccc(Cl)cc2Cl)OC[C@@H](O)[C@H]1O [β-D-Arabinoside, triclosan-β-D-arabinopyranoside]"
testedsystem = "Ent. cloacae ATCC 13047"
parameter = "MIC"
readoutunits = "µg/mL"
reading = 16

[[record]]
compound = "OC[C@H]1O[C@H](Oc2cc(Cl)ccc2Oc2ccc(Cl)cc2Cl)[C@@H](O)[C@@H](O)[C@@H]1O [α-D-Mannoside, triclosan-α-D-mannopyranoside]"
testedsystem = "Ent. cloacae ATCC 13047"
parameter = "MIC"
readoutunits = "µg/mL"
reading = 8


Using the record for OC[C@H]1O[C@H](Oc2cc(Cl)ccc2Oc2ccc(Cl)cc2Cl)[C@H](O)[C@@H](O)[C@H]1O [α-D-Galactoside, triclosan-α-D-galactopyranoside] , report its MIC. 32

Using the record for OC[C@H]1O[C@H](Oc2cc(Cl)ccc2Oc2ccc(Cl)cc2Cl)[C@H](O)[C@@H](O)[C@@H]1O [α-D-Glucoside, triclosan-α-D-glucopyranoside] , report its MIC. 1

Using the record for OC[C@H]1O[C@@H](Oc2cc(Cl)ccc2Oc2ccc(Cl)cc2Cl)[C@H](O)[C@@H](O)[C@@H]1O [β-D-Glucoside, triclosan-β-D-glucopyranoside] , report its MIC. 16

* * *

test system: Escherichia coli; assay: MIC in Nutrient Broth No. 2; format: cell-based; details: 8 strains; Nutrient Broth No. 2; with inducer 100 μg/ml
parameter: MIC

[[record]]
compound = "OC[C@H]1O[C@@H](Oc2cc(Cl)ccc2Oc2ccc(Cl)cc2Cl)[C@H](O)[C@@H](O)[C@@H]1O [β-D-Glucoside, triclosan-β-D-glucopyranoside]"
reading = "1 to 8 µg/mL"


Using the record for OC[C@H]1O[C@H](Oc2cc(Cl)ccc2Oc2ccc(Cl)cc2Cl)[C@H](O)[C@@H](O)[C@@H]1O [α-D-Glucoside, triclosan-α-D-glucopyranoside] , report its MIC. 1 to 4 µg/mL

Using the record for O[C@@H]1[C@H](Oc2cc(Cl)ccc2Oc2ccc(Cl)cc2Cl)OC[C@@H](O)[C@H]1O [β-D-Arabinoside, triclosan-β-D-arabinopyranoside] , report its MIC. 4 to 32 µg/mL

Using the record for OC[C@H]1O[C@H](Oc2cc(Cl)ccc2Oc2ccc(Cl)cc2Cl)[C@H](O)[C@@H](O)[C@H]1O [α-D-Galactoside, triclosan-α-D-galactopyranoside] , report its MIC. 8 to 64 µg/mL

Using the record for OC[C@H]1O[C@H](Oc2cc(Cl)ccc2Oc2ccc(Cl)cc2Cl)[C@@H](O)[C@@H](O)[C@@H]1O [α-D-Mannoside, triclosan-α-D-mannopyranoside] , report its MIC. 4 to 32 µg/mL

* * *

system: Enterococcus faecium ATCC 19434; assay: MIC in Nutrient Broth No. 2; format: cell-based; settings: Nutrient Broth No. 2; with inducer 100 μg/ml
parameter: MIC (µg/mL)
Quick note: give the figure in µg/mL, leave out the unit.

These solved cases illustrate the format of a correct answer.
[[record]]
compound = "OC[C@H]1O[C@H](Oc2cc(Cl)ccc2Oc2ccc(Cl)cc2Cl)[C@H](O)[C@@H](O)[C@@H]1O [α-D-Glucoside, triclosan-α-D-glucopyranoside]"
testedsystem = "Enterococcus faecium ATCC 19434"
reading = 256

[[record]]
compound = "OC[C@H]1O[C@@H](Oc2cc(Cl)ccc2Oc2ccc(Cl)cc2Cl)[C@H](O)[C@@H](O)[C@@H]1O [β-D-Glucoside, triclosan-β-D-glucopyranoside]"
testedsystem = "Enterococcus faecium ATCC 19434"
reading = 256

[[record]]
compound = "OC[C@H]1O[C@H](Oc2cc(Cl)ccc2Oc2ccc(Cl)cc2Cl)[C@@H](O)[C@@H](O)[C@@H]1O [α-D-Mannoside, triclosan-α-D-mannopyranoside]"
testedsystem = "Enterococcus faecium ATCC 19434"
reading = 256


Now look at this entry.
Using the record for O[C@@H]1[C@H](Oc2cc(Cl)ccc2Oc2ccc(Cl)cc2Cl)OC[C@@H](O)[C@H]1O [β-D-Arabinoside, triclosan-β-D-arabinopyranoside] , report its MIC. 256
